Assay: Permeability of the compound across basolateral side to apical side in human Caco2 cells
Type: ADME, cell-based
Settings: Caco-2, read-out: permeability
The label depends only on Papp B→A: Y if it is at least 20 ×10⁻⁶ cm/s, N if it is smaller.

smiles-input	assigned-label
COC(=O)Nc1ccc2c(c1)NC(=O)[C@H](C)CCC[C@H](NC(=O)c1cnn(-c3cccc(Cl)c3F)c1C)c1nc-2c[nH]1	Y
COC(=O)Nc1ccc2c(c1)NC(=O)[C@H](C)CCC[C@H](NC(=O)c1ncn(-c3cccc(Cl)c3F)c1C)c1cc-2ccn1.Cl.Cl	Y
COC(=O)Nc1ccc2c(c1)NC(=O)[C@H](C)CCC[C@H](NC(=O)c1c(F)cc(C)cc1F)c1cc-2ccn1	Y

For this compound, is measured Papp B→A 20 ×10⁻⁶ cm/s or higher? `COC(=O)Nc1ccc2c(c1)NC(=O)[C@H](C)CCC[C@H](NC(=O)/C=C/c1cc(Cl)ccc1-n1cnnn1)c1cc-2ccn1.O=C(O)C(F)(F)F`
N

Same question for `COC(=O)Nc1ccc2c(c1)NC(=O)CCCC[C@H](NC(=O)/C=C/c1cc(Cl)ccc1-n1cnnn1)c1cc-2ccn1` please.
N

One more compound: `COC(=O)Nc1ccc2c(c1)NC(=O)[C@H](C)CCC[C@H](NC(=O)c1cnn(-c3cccc(Cl)c3F)c1N)c1cc-2ccn1.O=C(O)C(F)(F)F.O=C(O)C(F)(F)F`
N

And what about the compound `CC[C@@H]1CCC[C@H](NC(=O)/C=C/c2cc(Cl)ccc2-n2cnnn2)c2cc(ccn2)-c2ccc(NC(=O)OC)cc2NC1=O` ?
N

###

Experiment: Oral bioavailability in cynomolgus monkey at 1.58 mg/kg
Assay type: ADME, organism-based, Macaca fascicularis
Conditions: in vivo
property: bioavailability (%)
The reply should be a number in %, with the unit left off.

Using the record for `COC(=O)Nc1ccc2c(c1)NC(=O)[C@H](C)CCC[C@H](NC(=O)c1ncn(-c3cccc(Cl)c3F)c1C)c1cc-2ccn1.O=C(O)C(F)(F)F.O=C(O)C(F)(F)F` , report its bioavailability.
19

###

Test: Half life in rat at 1.13 mg/kg, iv or 2.27 mg/kg, po
Format: ADME, organism-based
Settings: in vivo
property: half-life (h)
Report as a plain number; the unit h is understood.

May I ask what half-life has been recorded for `COC(=O)Nc1ccc2c(c1)NC(=O)CCCC[C@H](NC(=O)/C=C/c1cc(Cl)ccc1-n1cnnn1)c1nc-2c[nH]1` ?
1

###

Test: Oral bioavailability in rat at 1.10 mg/kg
Type: ADME, organism-based
Settings: in vivo, 1.1 mg/kg
property: bioavailability

Entry `COC(=O)Nc1ccc2c(c1)NC(=O)[C@H](C)CCC[C@H](NC(=O)c1nnn(-c3cccc(Cl)c3F)c1C)c1cc-2ccn1.O=C(O)C(F)(F)F` has what bioavailability?
13 to 42%

###

Assay: Half life in rat at 0.55 mg/kg, iv or 1.10 mg/kg, po
Format: ADME, organism-based
Conditions: in vivo
property: half-life

Could you share which half-life value was measured for `COC(=O)Nc1ccc2c(c1)NC(=O)[C@H](C)CCC[C@H](NC(=O)c1nnn(-c3cccc(Cl)c3F)c1C)c1cc-2ccn1.O=C(O)C(F)(F)F` ?
2.2 to 4.2 h

###

Test: Metabolic stability in human liver microsomes assessed as half life
Format: ADME, Microsome
property: half-life (h)
Numeric answer only, unit h assumed.

Answered examples (3):
smiles-input	property	numeric-readout
CC[C@@H]1CCC[C@H](NC(=O)/C=C/c2cc(Cl)ccc2-n2cnnn2)c2cc(ccn2)-c2ccc(NC(=O)OC)cc2NC1=O	half-life	0.667
COC(=O)Nc1ccc2c(c1)NC(=O)[C@H](C)CCC[C@H](NC(=O)c1cnn(-c3cccc(Cl)c3F)c1C)c1cc-2ccn1.Cl	half-life	1.35
COC(=O)Nc1ccc2c(c1)NC(=O)[C@H](C)CCC[C@H](NC(=O)c1cnn(-c3cccc(Cl)c3)c1N)c1cc-2ccn1	half-life	1.62

Attention now shifts to the item below.
# input compound: `COC(=O)Nc1ccc2c(c1)NC(=O)[C@H](C)CCC[C@H](NC(=O)c1cnn(-c3cccc(Cl)c3F)c1C)c1nc-2c[nH]1` ; wanted: its half-life
1.1
